Values compiled from paper PMC10065799.

# tested system: c-Src kinase domain (Homo sapiens)
# assay overview: pTyr-Var library bacterial peptide display kinase screen (enrichment scores);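 further: log2 fold change in enrichment of variant over reference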
# Type: biochemical
# experimental context: sheet "Src"; effect of the variant peptide relative to its reference peptide in the pTyr-Var library screen
experimental readout: Screen

record sequence	tested system	result value
STLEVYRCHPP [IL21R_Y317_S318R]	c-Src kinase domain (Homo sapiens)	-1.75
RGDCTYAPLLG [AR_Y269_M268T]	c-Src kinase domain (Homo sapiens)	0.1809
HESEIYGKVCF [CSRP3_Y57_C58G_YF]	c-Src kinase domain (Homo sapiens)	-0.5157
IEEGTYGVAFR [CDK11B_Y449_V452A_YF]	c-Src kinase domain (Homo sapiens)	-0.1184
REVPVYTFSEP [FAM120B_Y368_D370Y_YF]	c-Src kinase domain (Homo sapiens)	3.398
PLRAFYLIARV [HLCS_Y635_D634Y_YF]	c-Src kinase domain (Homo sapiens)	1.953
TSQSQYSSFRE [CCDC170_Y323_F324S]	c-Src kinase domain (Homo sapiens)	-1.483
PNRILYGDFWQ [MYH6_Y717_R721W]	c-Src kinase domain (Homo sapiens)	-0.3786
PFRKLYESVKK [MKI67_Y241_W238R]	c-Src kinase domain (Homo sapiens)	-1.776
LDTFIYDAAVL [GRIN2A_Y730_A727T]	c-Src kinase domain (Homo sapiens)	0.2901
GQRDLYSGLNE [CD3E_Y199_Q204E]	c-Src kinase domain (Homo sapiens)	-0.3824
PDSVDYPKKGF [CTSK_Y121_R122P_YF]	c-Src kinase domain (Homo sapiens)	2.065
LFEDCYLLGTS [ASS1_Y87_R86C_YF]	c-Src kinase domain (Homo sapiens)	2.612
HNLDFYKMTTN [FGFR3_Y648_K650M_YF]	c-Src kinase domain (Homo sapiens)	-2.668
LKLKAYRFSIS [LCT_Y974_V971L]	c-Src kinase domain (Homo sapiens)	1.678
FQNSLYAPDFS [FAM92A_Y226_R222Q_YF]	c-Src kinase domain (Homo sapiens)	0.8192
IFSGIYFKPES [L2HGDH_Y102_H98Y_YF]	c-Src kinase domain (Homo sapiens)	0.7627
LENSTYQFIHV [CRB1_Y760_R764H_YF]	c-Src kinase domain (Homo sapiens)	0.1019
HSKGIYFVQLE [MGAT4B_Y262_Q257H_YF]	c-Src kinase domain (Homo sapiens)	0.1036
TTPAVYARVTK [CTRB2_Y246_A250T]	c-Src kinase domain (Homo sapiens)	0.6652

====

Recorded Screen, one value per entry.
# System: EPHB2 kinase domain
# assay overview: pTyr-Var library bacterial peptide display kinase screen (enrichment scores);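 further: log2 fold change in enrichment of variant over reference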
# Assay type: biochemical, human
# experimental context: sheet EPHB2; effect of variant peptide relative to its reference peptide in the pTyr-Var library screen (enrichment scores)

record sequence	tested system	Screen
LENSTYQFIHV [CRB1_Y760_R764H_YF]	EPHB2 kinase domain	0.62
KLVQLYDVCTK [BTK_Y461_G462D]	EPHB2 kinase domain	2.907
IEEGTYGVAFR [CDK11B_Y449_V452A_YF]	EPHB2 kinase domain	-1.778
SPFMLYQFLKQ [RPAP3_Y567_D564Y_YF]	EPHB2 kinase domain	1.841
QSSALYEDHFL [ASS1_Y83_R86H_YF]	EPHB2 kinase domain	1.176
RQNQEYEILMD [KRT39_Y379_L383M]	EPHB2 kinase domain	0.3975
SSPQLYLVPFL [TAF4_Y652_P651L]	EPHB2 kinase domain	2.197
AEARMYGVLPW [PLP1_Y207_D203E]	EPHB2 kinase domain	-1.308
PLDNLYAEPAV [PRPS1_Y146_V142L]	EPHB2 kinase domain	0.4426
LFEDRYLLGPS [ASS1_Y87_T91P_YF]	EPHB2 kinase domain	-0.4556
QKTGDYFDLFG [PTPN11_Y62_N58K_YF]	EPHB2 kinase domain	-1.66
RGDCTYAPLLG [AR_Y269_M268T]	EPHB2 kinase domain	0.1305
CGPLLYGLVHQ [PRKCG_Y122_S119P]	EPHB2 kinase domain	-0.1456
ITNLLYHLVGW [GBA_Y412_V414L]	EPHB2 kinase domain	-1.708
HSKGIYFVQLE [MGAT4B_Y262_Q257H_YF]	EPHB2 kinase domain	-0.5096
PFGQWYESHFA [RPS8_Y113_R110G_YF]	EPHB2 kinase domain	2.604
LLIMEYAKFGS [RET_Y806_V804M_YF]	EPHB2 kinase domain	-0.7138
FTNELYMMMRD [FGFR1_Y730_C725Y_YF]	EPHB2 kinase domain	0.5582
LFEDCYLLGTS [ASS1_Y87_R86C_YF]	EPHB2 kinase domain	-0.8272
LAIELYVVVCK [RHO_Y136_R135L]	EPHB2 kinase domain	0.6623
PMFHSYVSLPF [PLXNA2_Y293_K289M]	EPHB2 kinase domain	0.8579
TDIVAYSGWVQ [SPTBN2_Y477_R480W]	EPHB2 kinase domain	-2.35
NTFENYWPFFQ [GATM_Y103_K102N_YF]	EPHB2 kinase domain	3.46
LNEAVYTKMMT [G6PD_Y401_P396L]	EPHB2 kinase domain	2.035
HNLDFYKMTTN [FGFR3_Y648_K650M_YF]	EPHB2 kinase domain	0.0281

====

# Test system: Fer kinase domain
# assay overview: pTyr-Var library bacterial peptide display kinase screen (enrichment scores);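 further: log2 fold change in enrichment of variant over reference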
# Format: biochemical, mouse
# experimental context: sheet "Fer"; variant peptide relative to its reference peptide, pTyr-Var library screen enrichment
Response field label takes Fulfilled when Screen is strictly below 1 and Not fulfilled in all other cases.

record sequence	class
QLQQAYQEAFE [YWHAZ_Y149_S145L]	Not fulfilled
KEAQVYQAFRL [SUCLG2_Y343_K347R]	Fulfilled
ACCLLYCGDVV [TUBA4A_Y319_R320C]	Not fulfilled
PFGQWYESHFA [RPS8_Y113_R110G_YF]	Not fulfilled
KFDLMYAKRAF [TUBA3E_Y399_W402R]	Fulfilled
MVIPNYSSWTE [UROC1_Y185_R188W]	Not fulfilled

====

# tested system: c-Src kinase domain (Homo sapiens)
# assay overview: pTyr-Var library bacterial peptide display kinase screen (enrichment scores);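 further: log2 fold change in enrichment of variant over reference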
# Format: biochemical
# experimental context: sheet "Src"; variant peptide versus its reference peptide in the pTyr-Var library screen
experimental readout: Screen

record sequence	result value
NFFDLYGGEKF [PTPN11_Y66_D61N_YF]	-0.03521
SPPEVYAIMRG [NTRK1_Y757_C752S]	0.1672
LWQTIYNLEAE [TNNT2_Y251_S249T]	0.4505
RRIHRYRGHLW [VHL_Y112_S111R]	-2.928
FFFDLYGGEKF [PTPN11_Y66_D61Y_YF]	-1.282
SILTVYSKDNF [PANK2_Y400_A398T_YF]	-1.709
RLDGEYFTLQI [TP53_Y327_P322R]	-0.8354
DAKTIYDFTDT [PDK1_Y136_A134T]	-0.8148
SPFMLYQFLKQ [RPAP3_Y567_D564Y_YF]	-1.029
PLDNLYAEPAV [PRPS1_Y146_V142L]	0.376
RRIHSYRGHVW [VHL_Y112_L116V]	-1.808
CSEEMYCLMLQ [RET_Y981_R982C]	1.894
LCHELYNTIRD [PBRM1_Y54_V49L]	1.3
ACCLLYCGDVV [TUBA4A_Y319_R320C]	-0.4326
KVASVYEALGF [NT5C_Y65_P68L]	0.2966
GRDVIYKGFED [NFU1_Y194_G190R]	-0.4839
ERDTVYSSSGV [NELL2_Y350_N347D]	1.43
PLDAEYFTLQI [TP53_Y327_G325A]	0.1358
KVALLYKPFFF [POLE_Y100_P99L_YF]	1.635
AEARMYGVLPW [PLP1_Y207_D203E]	-0.462
MSGDVYSTDFF [NTRK2_Y702_R699G_YF]	0.7528
QKTGDYFDLFG [PTPN11_Y62_N58K_YF]	-1.277
KFDLMYAKRAF [TUBA3E_Y399_W402R]	-2.285
